assay_method_text: Half life in cynomolgus monkey at 2 mg/kg,iv by LC-MS/MS analysis
Type: ADME, organism-based, Macaca fascicularis
applied_conditions: in vivo
reported_metric: half-life (h)
Express your answer in h, writing the number without its unit.

Could you tell me which half-life is on file for CCOC(=O)C1=C(CN2CCN3C(=O)N(CC(C)(C)C(=O)O)C[C@@H]3C2)NC(c2nccs2)=N[C@H]1c1cccc(F)c1C [LINVENCORVIR] ?
1.77

###

assay_method_text: AUClast in cynomolgus monkey at 2 mg/kg,iv by LC-MS/MS analysis
Assay type: ADME, organism-based, Macaca fascicularis
Parameters: dose 2 mg/kg, route iv
applied_conditions: in vivo
reported_metric: AUC(0-t) (ng·h/mL)
Kindly answer with a numeric value in ng·h/mL, unit omitted.

Could you tell me which AUC(0-t) is on file for CCOC(=O)C1=C(CN2CCN3C(=O)N(CC(C)(C)C(=O)O)C[C@@H]3C2)NC(c2nccs2)=N[C@H]1c1cccc(F)c1C ?
1490

###

assay_method_text: Cytotoxicity against human HepDE19 cells assessed as reduction in cell viability incubated for 5 days by CCK-8 assay
Format: functional
applied_conditions: HepDE19, 120 h, time 5 day
Answer each item with its documented CC50.

Quick one: CC50 of CCOC(=O)C1=C(CN2C[C@H]3CN(C)C(=O)N3C[C@@H]2C(=O)O)NC(c2nccs2)=N[C@H]1c1cccc(F)c1Cl ?
> 100 µM

What do we get for CCOC(=O)C1=C(CN2C[C@H]3CN(C4CC4)C(=O)N3C[C@@H]2C(=O)O)NC(c2nccs2)=N[C@H]1c1ccc(F)cc1Cl ?
> 100 µM

How about this compound: COC(=O)C1=C(CN2CCN(C(C)=O)CC2)NC(c2nccs2)=N[C@H]1c1ccc(F)cc1Cl
> 100 µM

###

assay_method_text: Cytotoxicity against human HepDE19 cells assessed as reduction in cell viability incubated for 5 days by CCK-8 assay
Format: functional
applied_conditions: HepDE19, 120 h, time 5 day
reported_metric: CC50

Bench note: what CC50 did CCOC(=O)C1=C(CN2C[C@H]3CN(C)C(=O)N3C[C@H]2C(=O)O)NC(c2nccs2)=N[C@H]1c1cccc(F)c1Cl show?
> 100 µM

Another molecule to look at: CCOC(=O)C1=C(CN2CCN3C(=O)N(CC(C)C(=O)O)C[C@@H]3C2)NC(c2nccs2)=N[C@H]1c1ccc(F)cc1Cl (stereo partly drawn)
> 100 µM

What do we get for CCOC(=O)C1=C(CN2CCN3C(=O)N(C(C)(C)C(=O)O)C[C@@H]3C2)NC(c2nccs2)=N[C@H]1c1ccc(F)cc1Cl ?
61 µM
